Numbers sourced from ChEMBL document CHEMBL5518246.

Test: Metabolic stability in human liver microsomes assessed as unbound intrinsic clearance at 0.5 uM measured after 4 hrs
Type: ADME, Microsome
Use MET when the recorded CL free is no lower than 100 mL/min/kg; use NOT MET when it is lower.

> print(dat)
                                   compound  category
1  O=C(N[C@@H](CCc1ccccc1)C(=O)NCc1cn2cccnc2n1)c1cc(Cl)c(Cl)[nH]1       MET
2  O=C(NC(CCc1ccccc1)C(=O)NCc1cn2cccnc2n1)c1cc(Cl)c(Cl)[nH]1 (racemic)       MET
3  C[C@H](NC(=O)[C@]1(NC(=O)c2cc(Cl)c[nH]2)CO[C@H](c2ccccc2)C1)c1ncc2c(n1)CN(C1CCN(C)CC1)C2   NOT MET
4  O=C(N[C@@H](CCc1ccccc1)C(=O)NCc1ncccn1)c1cc(Cl)c(Cl)[nH]1   NOT MET
5  CNC(=O)[C@@H](NC(=O)c1cc(Cl)c(Cl)[nH]1)C1Cc2ccccc2C1       MET
6  O=C(N[C@@H](CCc1ccccc1)C(=O)NCc1ncc2c(n1)COC2)c1cc(Cl)c(Cl)[nH]1       MET
7  O=C(N[C@@]1(C(=O)NCc2cn3cccnc3n2)CO[C@H](c2ccccc2)C1)c1cc(Cl)c(Cl)[nH]1   NOT MET

Continue with the next compound.
Threshold query (CL free >= 100 mL/min/kg) on C[C@H](NC(=O)[C@H](CCc1ccccc1)NC(=O)c1cc(Cl)c(Cl)[nH]1)c1cn2ccsc2n1
MET
